Origin of the recorded values: ChEMBL document CHEMBL1135692

# experimental-system: Melanocortin receptor 5 (Mus musculus, UniProt P41149)
# Sequence (P41149 whole entry): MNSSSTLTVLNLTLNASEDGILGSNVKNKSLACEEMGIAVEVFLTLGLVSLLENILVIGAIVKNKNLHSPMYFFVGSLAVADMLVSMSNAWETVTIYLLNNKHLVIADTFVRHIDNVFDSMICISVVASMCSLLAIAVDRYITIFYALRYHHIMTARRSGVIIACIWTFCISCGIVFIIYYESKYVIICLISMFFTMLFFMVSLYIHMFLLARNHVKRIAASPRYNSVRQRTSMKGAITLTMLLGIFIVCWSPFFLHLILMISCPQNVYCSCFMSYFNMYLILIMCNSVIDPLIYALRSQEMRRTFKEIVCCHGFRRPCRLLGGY
# experiment-summary: Activity in mouse melanocortin-5 receptor stably expressed in HEK293 cells
# Type: cell-based
pEC50: −log10 of the molar value.
assay-endpoint: pEC50

Some molecules with known pEC50 results, for comparison:
- molecule: "CC(=O)N[C@@H](Cc1cnc[nH]1)C(=O)NC(Cc1ccccc1)C(=O)N[C@@H](CCCNC(=N)N)C(=O)N[C@H](Cc1cnc[nH]1)C(N)=O (stereo in doubt)"
  pEC50: 4.44
- molecule: "CC(=O)N[C@@H](Cc1cnc[nH]1)C(=O)NC(Cc1ccccc1)C(=O)N[C@@H](CCCNC(=N)N)C(=O)N[C@@H](Cc1cccc2ccccc12)C(N)=O (stereo in doubt)"
  pEC50: 6.12

a: CC(=O)N[C@@H](Cc1c[nH]cn1)C(=O)NC(Cc1ccccc1)C(=O)N[C@@H](CCCN=C(N)N)C(=O)NC(Cc1ccccc1)C(N)=O (stereo in doubt)
b: CC(=O)N[C@@H](Cc1c[nH]cn1)C(=O)N[C@H](Cc1ccccc1)C(=O)N[C@@H](CCCN=C(N)N)C(=O)N[C@@]1(C(N)=O)CCc2ccccc2C1 (stereo in doubt; 21)
c: CC(=O)N[C@@H](Cc1c[nH]cn1)C(=O)NC(Cc1ccccc1)C(=O)N[C@@H](CCCN=C(N)N)C(=O)N[C@H](Cc1ccc2ccccc2c1)C(N)=O (stereo in doubt)
Query: Write the entries in order, lowest recorded pEC50 first. Answer format: list of labels, ordered as asked.
Response: b, a, c
(b: 6.02, a: 6.33, c: 8.31)

* * *

# experimental-system: Melanocortin receptor 5 (Mus musculus)
# experiment-summary: Activity in mouse melanocortin-5 receptor stably expressed in HEK293 cells
# Type: cell-based
pEC50: −log10 of the molar value.
assay-endpoint: pEC50

Solved entries (count: 3):
- compound: "CC(=O)N[C@@H](Cc1cnc[nH]1)C(=O)N[C@H](Cc1ccccc1)C(=O)N[C@@H](CCCN=C(N)N)C(=O)N1Cc2ccccc2C[C@@H]1C(N)=O"
  assay-endpoint: "pEC50"
  test-value: 4.61
- compound: "CC(=O)N[C@@H](Cc1cnc[nH]1)C(=O)NC(Cc1ccccc1)C(=O)N[C@@H](CCCNC(=N)N)C(=O)NC(C(N)=O)C(c1ccccc1)c1ccccc1 (stereo in doubt)"
  assay-endpoint: "pEC50"
  test-value: 5.13
- compound: "CC(=O)N[C@@H](Cc1c[nH]cn1)C(=O)N[C@H](Cc1ccccc1)C(=O)N[C@@H](CCCN=C(N)N)C(=O)N[C@@H](Cc1ccccc1)C(N)=O"
  assay-endpoint: "pEC50"
  test-value: 6.05

A: CC(=O)N[C@@H](Cc1c[nH]cn1)C(=O)N[C@H](Cc1ccccc1)C(=O)N[C@@H](CCCN=C(N)N)C(=O)N[C@@H](C)C(N)=O
B: CC(=O)N[C@@H](Cc1cnc[nH]1)C(=O)NC(Cc1ccccc1)C(=O)N[C@@H](CCCNC(=N)N)C(=O)N[C@@H](Cc1ccc(-c2ccccc2)cc1)C(N)=O (stereo in doubt)
C: CC(=O)N[C@@H](Cc1cnc[nH]1)C(=O)NC(Cc1ccccc1)C(=O)N[C@@H](CCCNC(=N)N)C(=O)N[C@H](Cc1cccs1)C(N)=O (stereo in doubt)
Query: Rank the items in ascending order with respect to pEC50. Give your ranking as a list of the labels in the requested order.
Response: A, C, B
(A: 4.42, C: 6.07, B: 6.82)

* * *

# experimental-system: Melanocortin receptor 5 (Mus musculus)
# experiment-summary: Activity in mouse melanocortin-5 receptor stably expressed in HEK293 cells
# Format: cell-based
pEC50: −log10 of the molar value.
assay-endpoint: pEC50

Solved cases below.
- molecule: "CC(=O)N[C@@H](Cc1cnc[nH]1)C(=O)NC(Cc1ccccc1)C(=O)N[C@@H](CCCNC(=N)N)C(=O)N[C@H](Cc1csc2ccccc12)C(N)=O (stereo in doubt)"
  pEC50: 7.32
- molecule: "CC(=O)N[C@@H](Cc1c[nH]cn1)C(=O)N[C@H](Cc1ccccc1)C(=O)N[C@@H](CCCN=C(N)N)C(=O)N[C@H](C(N)=O)C(c1ccccc1)c1ccccc1"
  pEC50: 5.15
- molecule: "CC(=O)N[C@@H](Cc1c[nH]cn1)C(=O)NC(Cc1ccccc1)C(=O)N[C@@H](CCCN=C(N)N)C(=O)N[C@H](Cc1ccc(-c2ccccc2)cc1)C(N)=O (stereo in doubt)"
  pEC50: 7.00

P: CC(=O)N[C@@H](Cc1cnc[nH]1)C(=O)N[C@H](Cc1ccccc1)C(=O)N[C@@H](CCCN=C(N)N)C(=O)NC(Cc1c[nH]c2ccccc12)C(N)=O (stereo in doubt)
Q: CC(=O)N[C@@H](Cc1c[nH]cn1)C(=O)NC(Cc1ccccc1)C(=O)N[C@@H](CCCN=C(N)N)C(=O)NC(Cc1ccc2ccccc2c1)C(N)=O (stereo in doubt)
Query: Identify the item whose pEC50 is the smaller number: P or Q Mark your answer with the label of the selected entry.
Response: P
(P: 7.45, Q: 7.92)

* * *

# experimental-system: Melanocyte-stimulating hormone receptor (Mus musculus, UniProt Q01727)
# Sequence (Q01727 whole entry): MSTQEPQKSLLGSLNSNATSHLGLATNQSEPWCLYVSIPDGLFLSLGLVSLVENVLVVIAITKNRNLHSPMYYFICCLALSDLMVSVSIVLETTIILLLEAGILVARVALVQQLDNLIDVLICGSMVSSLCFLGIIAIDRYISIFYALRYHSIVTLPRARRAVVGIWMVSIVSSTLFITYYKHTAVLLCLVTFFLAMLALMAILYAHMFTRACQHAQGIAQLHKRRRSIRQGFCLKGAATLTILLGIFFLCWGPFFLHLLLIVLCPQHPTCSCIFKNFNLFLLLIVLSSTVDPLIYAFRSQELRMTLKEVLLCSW
# experiment-summary: Activity in mouse melanocortin-1 receptor stably expressed in HEK293 cells
# Type: cell-based
assay-endpoint: EC50 (nM)

- compound: "CC(=O)N[C@@H](Cc1cnc[nH]1)C(=O)NC(Cc1ccccc1)C(=O)N[C@@H](CCCNC(=N)N)C(=O)N[C@H](Cc1cnc[nH]1)C(N)=O (stereo in doubt)"
  EC50 / nM: 3800

I: CC(=O)N[C@@H](Cc1c[nH]cn1)C(=O)NC(Cc1ccccc1)C(=O)N[C@@H](CCCN=C(N)N)C(=O)NC(Cc1ccc2ccccc2c1)C(N)=O (stereo in doubt)
II: CC(=O)N[C@@H](Cc1cnc[nH]1)C(=O)NC(Cc1ccccc1)C(=O)N[C@@H](CCCNC(=N)N)C(=O)N[C@H](Cc1csc2ccccc12)C(N)=O (stereo in doubt)
Query: I'm curious whether I or II has the smaller EC50 number. Which is it? Answer = label.
Response: II
(II: 79.9 nM, I: 127 nM)

* * *

# experimental-system: Melanocortin receptor 3 (Mus musculus, UniProt P33033)
# Sequence (P33033 whole entry): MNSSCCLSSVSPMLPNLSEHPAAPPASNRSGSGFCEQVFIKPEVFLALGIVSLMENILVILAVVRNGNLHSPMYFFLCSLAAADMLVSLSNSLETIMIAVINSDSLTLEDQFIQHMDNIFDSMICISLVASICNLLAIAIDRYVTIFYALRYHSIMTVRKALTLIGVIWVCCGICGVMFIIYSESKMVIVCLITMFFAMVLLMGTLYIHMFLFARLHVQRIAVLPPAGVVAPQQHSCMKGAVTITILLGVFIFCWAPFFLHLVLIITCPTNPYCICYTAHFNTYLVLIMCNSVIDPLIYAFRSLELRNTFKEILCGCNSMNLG
# experiment-summary: Activity in mouse melanocortin-3 receptor (mMC3R) stably expressed in HEK293 cells
assay-endpoint: EC50 (µM)

# example entries with known answers
- molecule: "CC(=O)N[C@@H](Cc1cnc[nH]1)C(=O)NC(Cc1ccccc1)C(=O)N[C@@H](CCCNC(=N)N)C(=O)NC(C(N)=O)C(c1ccccc1)c1ccccc1 (stereo in doubt)"
  test-value: 16
- molecule: "CC(=O)N[C@@H](Cc1c[nH]cn1)C(=O)N[C@@H](Cc1ccccc1)C(=O)N[C@@H](CCCN=C(N)N)C(=O)N[C@H](Cc1ccccc1)C(N)=O"
  test-value: 27
- molecule: "CC(=O)N[C@@H](Cc1c[nH]cn1)C(=O)N[C@H](Cc1ccccc1)C(=O)N[C@@H](CCCN=C(N)N)C(=O)N[C@@]1(C(N)=O)CCc2ccccc2C1 (stereo in doubt; 21)"
  test-value: 33.5
- molecule: "CC(=O)N[C@@H](Cc1c[nH]cn1)C(=O)NC(Cc1ccccc1)C(=O)N[C@@H](CCCN=C(N)N)C(=O)N[C@H](Cc1ccc2ccccc2c1)C(N)=O (stereo in doubt)"
  test-value: 0.74

a: CC(=O)N[C@@H](Cc1cnc[nH]1)C(=O)NC(Cc1ccccc1)C(=O)N[C@@H](CCCNC(=N)N)C(=O)N[C@H](Cc1csc2ccccc12)C(N)=O (stereo in doubt)
b: CC(=O)N[C@@H](Cc1cnc[nH]1)C(=O)NC(Cc1ccccc1)C(=O)N[C@@H](CCCNC(=N)N)C(=O)N[C@H](Cc1cccs1)C(N)=O (stereo in doubt)
c: CC(=O)N[C@@H](Cc1cnc[nH]1)C(=O)NC(Cc1ccccc1)C(=O)N[C@@H](CCCNC(=N)N)C(=O)N[C@@H](Cc1ccc(-c2ccccc2)cc1)C(N)=O (stereo in doubt)
Query: Put these in order: smallest EC50 first, largest last. API: response body holds the labels in the requested order.
Response: a, c, b

* * *

# experimental-system: Melanocortin receptor 4 (Mus musculus, UniProt P56450)
# Sequence (P56450 whole entry): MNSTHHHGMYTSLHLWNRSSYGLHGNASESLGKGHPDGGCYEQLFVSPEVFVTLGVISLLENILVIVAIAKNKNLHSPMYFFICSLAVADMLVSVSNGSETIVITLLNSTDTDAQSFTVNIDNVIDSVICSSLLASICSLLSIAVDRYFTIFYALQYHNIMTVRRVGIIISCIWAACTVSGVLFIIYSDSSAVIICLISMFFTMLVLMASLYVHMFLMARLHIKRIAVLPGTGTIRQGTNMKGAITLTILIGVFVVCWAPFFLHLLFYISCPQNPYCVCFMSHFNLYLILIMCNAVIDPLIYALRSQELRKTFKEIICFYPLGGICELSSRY
# experiment-summary: Activity in mouse melanocortin-4 receptor stably expressed in HEK293 cells
# Type: cell-based
pEC50: −log10 of the molar value.
assay-endpoint: pEC50

- molecule: "CC(=O)N[C@@H](Cc1cnc[nH]1)C(=O)NC(Cc1ccccc1)C(=O)N[C@@H](CCCNC(=N)N)C(=O)N[C@H](Cc1cccc2ccccc12)C(N)=O (stereo in doubt)"
  pEC50: 6.59

I: CC(=O)N[C@@H](Cc1cnc[nH]1)C(=O)N[C@H](Cc1ccccc1)C(=O)N[C@@H](CCCN=C(N)N)C(=O)NC(Cc1c[nH]c2ccccc12)C(N)=O (stereo in doubt)
II: CC(=O)N[C@@H](Cc1cnc[nH]1)C(=O)NC(Cc1ccccc1)C(=O)N[C@@H](CCCNC(=N)N)C(=O)N[C@H](Cc1ccncc1)C(N)=O (stereo in doubt)
Query: Returns: the argument ( I or II ) having the larger pEC50. Mark your selection by writing its label.
Response: I
